Where these numbers come from: patent US7968543B2

assay: clinical; settings: human, in vivo, 12 mg, SS AUC0-24 (ng * h/mL)
Property name: AUC(0-t) (ng·h/mL)
// note: answer is a bare numeric in ng·h/mL

What value of measured AUC(0-t) is listed for CC(C)(C)c1cc(NC(=O)Nc2ccc(-c3cn4c(n3)sc3cc(OCCN5CCOCC5)ccc34)cc2)no1 [compound of Formula I] ? 757

----------
assay: in vivo; conditions: mouse, plasma, oral, 1 mg/kg
Property name: AUC

What value of measured AUC is listed for CC(C)(C)c1cc(NC(=O)Nc2ccc(-c3cn4c(n3)sc3cc(OCCN5CCOCC5)ccc34)cc2)no1 [compound of Formula I] ? ~3.2 µM·h
